Numbers sourced from patent US20120077731A1.

Biological target: T1, Human soluble IL-6R (human, UniProt P08887 20-358)
T1 construct: Soluble recombinant form; biotinylated in some assays; also called hIL-6R; human IL-6R
T1 sequence (looked up): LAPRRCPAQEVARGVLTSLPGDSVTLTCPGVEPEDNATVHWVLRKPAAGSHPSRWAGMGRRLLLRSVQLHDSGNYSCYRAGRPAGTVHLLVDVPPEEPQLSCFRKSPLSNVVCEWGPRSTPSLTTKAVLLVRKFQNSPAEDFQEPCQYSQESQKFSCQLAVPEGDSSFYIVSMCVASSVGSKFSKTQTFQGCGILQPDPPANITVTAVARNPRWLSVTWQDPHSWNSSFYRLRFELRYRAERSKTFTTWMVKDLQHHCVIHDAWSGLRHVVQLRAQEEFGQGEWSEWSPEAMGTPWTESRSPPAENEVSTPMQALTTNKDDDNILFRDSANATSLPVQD
Experiment: SPR Biacore 3000, IL-6R amine-coupled to CM5
# kon per entry
Express the result in M⁻¹ s⁻¹ but write the number alone.

Examples with answers:
>>> endpoint_result("IL6R14 (VHH, also called PMP40H5; not shown: C-terminal c-myc and (His)6 tags) VHH: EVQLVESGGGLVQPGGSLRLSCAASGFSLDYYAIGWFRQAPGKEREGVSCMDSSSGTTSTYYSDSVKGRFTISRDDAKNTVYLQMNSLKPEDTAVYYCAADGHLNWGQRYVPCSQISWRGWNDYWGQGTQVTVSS")
402000
>>> endpoint_result("IL6R01 (VHH, also called PMP28E11; not shown: C-terminal c-myc and (His)6 tags) VHH: EVQLVESGGGLVQPGGSLRLSCAASGFPLDYYAIGWFRQAPGKEREGVSCISSSDGSTYYADSVKGRFTISRDNAKNTVYLQMNSLKPEDTAVYYCALVHTTAQATGVPQREYEYEWWGQGTQVTVSS")
262000
>>> endpoint_result("IL6R10 (VHH, also called PMP35C10; not shown: C-terminal c-myc and (His)6 tags) VHH: EVQLVESGGGLVQAGGSLRLSCAASGRTFSSYDMGWYRQAPGKEREFVAVIHWSSGSTYYADPVKGRFTISRDNAKNTVYLQMNSLKPEDTAIYYCNAFLPGPEGFHDYWGQGTQVTVSS")
414000
>>> endpoint_result("IL6R02 (VHH, also called PMP30C11; not shown: C-terminal c-myc and (His)6 tags) VHH: EVQLVESGGGLVQAGGSLRLSCAASGRTFSSYDMGWYRQAPGKEREFVAVISRSGSSTYYADSVKGRFTISRDNAKNTVYLQMNSLKPEDTAIYYCKAEVVAGDYDYWGQGTQVTVSS")
840000
>>> endpoint_result("IL6R08 (VHH, also called PMP34A12; not shown: C-terminal c-myc and (His)6 tags) VHH: EVQLVESGGGLVQPGGSLRLSCVASGFSLDYYVIGWFRQAPGKEREGVSCISSSDGSTYYADSVKGRFTISRDNAKNTVYLQMNSLKPEDTAVYYCAADLLRTPEFCVDSAPYDYWGQGTQVTVSS")
194000
>>> endpoint_result("IL6R05 (VHH, also called PMP32E10; not shown: C-terminal c-myc and (His)6 tags) VHH: EVQLVESGGGLVQPGGSLRLSCAASGFTFGSYDMSWVRQAPGKGPEWVSAINSGGGSTYYADSVKGRFTISRDNAKNTLYLQMNSLKPEDTAVYYCATDWRYSDYDLPLPPPGDYWGQGTQVTVSS")
144000
>>> endpoint_result("IL6R04 (VHH, also called PMP32C9; not shown: C-terminal c-myc and (His)6 tags) VHH: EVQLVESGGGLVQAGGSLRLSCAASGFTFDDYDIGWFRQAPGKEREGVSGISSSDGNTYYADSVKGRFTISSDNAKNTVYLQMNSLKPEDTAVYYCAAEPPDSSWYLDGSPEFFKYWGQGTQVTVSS")
365000
>>> endpoint_result("IL6R03 (VHH, also called PMP31A4; not shown: C-terminal c-myc and (His)6 tags) VHH: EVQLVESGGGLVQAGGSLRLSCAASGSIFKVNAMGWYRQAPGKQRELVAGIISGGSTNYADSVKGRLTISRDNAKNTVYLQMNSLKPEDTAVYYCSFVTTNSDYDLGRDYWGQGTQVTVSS")
484000

Below: the item to evaluate.
Given IL6R12 (VHH, also called PMP35F4; not shown: C-terminal c-myc and (His)6 tags) VHH: EVQLVESGGGLVQAGGSLRLSCAASGRTFSSYDMGWYRQAPGKEREFVAIITWNSSTYYADSVKGRFTISRDNAKNTVYLQMNSLKPEDTAIYYCNAQYGLGYAEDYWGQGTQVTVSS , state its recorded kon.
678000
